B1: PhoQ; a variant is named by its letters at X, in order, P23837 (parent)
chain: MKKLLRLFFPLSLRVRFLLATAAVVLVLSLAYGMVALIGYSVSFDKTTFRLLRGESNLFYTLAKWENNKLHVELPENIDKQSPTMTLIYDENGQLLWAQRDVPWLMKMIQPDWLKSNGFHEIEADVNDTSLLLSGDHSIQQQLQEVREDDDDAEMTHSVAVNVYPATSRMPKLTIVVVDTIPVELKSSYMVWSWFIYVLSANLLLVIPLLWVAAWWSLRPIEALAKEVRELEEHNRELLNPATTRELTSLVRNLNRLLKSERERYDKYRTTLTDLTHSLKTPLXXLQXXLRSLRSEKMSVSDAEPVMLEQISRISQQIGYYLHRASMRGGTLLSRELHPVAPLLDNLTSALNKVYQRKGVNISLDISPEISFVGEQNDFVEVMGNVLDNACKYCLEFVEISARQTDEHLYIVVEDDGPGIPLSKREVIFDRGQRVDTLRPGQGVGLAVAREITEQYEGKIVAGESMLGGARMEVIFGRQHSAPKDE

# Variants of: B1
# experiment_notes: enrichment ratio after two sorts for PhoP signalling (ratio (wild type AVST 3.29)); higher = more functional
# condition_context: with PhoP (E. coli)
In all, about 140,000 sequences were measured (“enrichment ratio after two sorts for PhoP signalling”: median about 0, highest 2% from about 11 on). Only a selection was taken, and the highest values are over-represented in it overall.

# alteration, enrichment ratio
rows = [
    ("VSRM", "≤ 0.25"),
    ("PCSF", "≤ 0.25"),
    ("GGLE", "≤ 0.25"),
    ("ARSC", "≤ 0.25"),
    ("MQNP", "≤ 0.25"),
    ("YIWG", "≤ 0.25"),
    ("ANSC", 11.9),
    ("SYCE", 2.48),
    ("TKSC", 5.09),
    ("TPCH", "≤ 0.25"),
    ("ADSC", "≤ 0.25"),
    ("YDYL", "≤ 0.25"),
    ("GEVG", 8.67),
    ("ANSK", "≤ 0.25"),
    ("PLEP", "≤ 0.25"),
    ("YYAS", "≤ 0.25"),
    ("MHTV", "≤ 0.25"),
    ("GEGM", "≤ 0.25"),
    ("PKDI", "≤ 0.25"),
    ("AILI", 1.77),
    ("GEVA", "≤ 0.25"),
    ("PNRW", "≤ 0.25"),
]
